Target: recombinant human MMP-13 (Homo sapiens, UniProt P45452)
Assay: In vitro metalloprotease inhibition, fluorogenic MCA peptide substrate
Details: recombinant human MMP-13, APMA activated; room temperature; substrate 4 μM; 1 percent DMSO
Counter-ions that a name gives are not always drawn.
Please note: IC50 exactly at 0.3 nM is f. Only values below 0.3 nM get t.

O=C(CN(CCN1CCOCC1)S(=O)(=O)c1ccc(Sc2ccccc2)cc1)NO [Example 6e, Hydrochloride] | t
Cc1ccc(Sc2ccc(S(=O)(=O)N(CCN3CCOCC3)[C@H](C)C(=O)NO)cc2)cc1 [Example 4f, Monohydrochloride] | t
Cc1cccc(Sc2ccc(S(=O)(=O)N(CCN3CCOCC3)[C@@H](C(=O)NO)C(C)C)cc2)c1 [Example 1g, Monohydrochloride] | f
Cc1ccc(Sc2ccc(S(=O)(=O)N(CCN3CCOCC3)[C@@H](C(=O)NO)C(C)C)cc2)cc1 [Example 2e, Monohydrochloride] | f
CC(C)[C@H](C(=O)NO)N(CCN1CCCCC1)S(=O)(=O)c1ccc(Sc2ccccc2)cc1 [Example 8d, Monohydrochloride] | f
C[C@H](C(=O)NO)N(CCN1CCOCC1)S(=O)(=O)c1ccc(Sc2ccccc2)cc1 [Example 3g] | f
O=C(CN(CCN1CCOCC1)S(=O)(=O)c1ccc(SC2CCCCC2)cc1)NO [Example 5f] | f

###

IC50 values for the compounds below.
Molecular target: recombinant human MMP-1 (Homo sapiens, UniProt P03956)
Sequence (P03956 100-469): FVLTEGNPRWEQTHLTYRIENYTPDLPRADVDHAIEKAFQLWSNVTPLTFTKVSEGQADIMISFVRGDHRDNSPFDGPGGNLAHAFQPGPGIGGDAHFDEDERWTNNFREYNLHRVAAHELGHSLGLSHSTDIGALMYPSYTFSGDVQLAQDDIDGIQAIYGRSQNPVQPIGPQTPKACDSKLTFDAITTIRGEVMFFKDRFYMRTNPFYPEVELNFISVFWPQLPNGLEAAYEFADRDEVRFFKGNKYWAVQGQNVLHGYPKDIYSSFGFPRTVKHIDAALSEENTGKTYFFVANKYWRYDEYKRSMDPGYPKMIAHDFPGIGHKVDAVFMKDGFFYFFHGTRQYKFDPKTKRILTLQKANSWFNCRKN
Experiment: In vitro metalloprotease inhibition, fluorogenic MCA peptide substrate
Conditions: recombinant human MMP-1, APMA activated; room temperature; substrate 4 μM; 1 percent DMSO
Counter-ions that a name gives are not always drawn.
Measure name: IC50 (µM)

O=C(CN(CCN1CCOCC1)S(=O)(=O)c1ccc(Sc2ccccc2)cc1)NO [Example 6e, Hydrochloride] | 4
Cc1cccc(Sc2ccc(S(=O)(=O)N(CCN3CCOCC3)[C@@H](C(=O)NO)C(C)C)cc2)c1 [Example 1g, Monohydrochloride] | 1.5
Cc1ccc(Sc2ccc(S(=O)(=O)N(CCN3CCOCC3)[C@@H](C(=O)NO)C(C)C)cc2)cc1 [Example 2e, Monohydrochloride] | 2
CC(C)[C@H](C(=O)NO)N(CCN1CCCCC1)S(=O)(=O)c1ccc(Sc2ccccc2)cc1 [Example 8d, Monohydrochloride] | 0.5
C[C@H](C(=O)NO)N(CCN1CCOCC1)S(=O)(=O)c1ccc(Sc2ccccc2)cc1 | 1.8
CC(C)[C@H](C(=O)NO)N(CCN1CCOCC1)S(=O)(=O)c1ccc(Sc2ccccc2)cc1 [Example 7f, Monohydrochloride] | 0.56
